experiment: Cytotoxicity against HEK293T cells incubated for 1 hr by fluorescence based microplate reader assay; type: toxicity, cell-based, HEK-293T; details: human
Non-standard residues stand in square brackets, D forms with d. Residues, ends and D or L forms follow the SMILES beside them. Bip = N[C@@H](Cc1ccc(-c2ccccc2)cc1)C(=O)O; pY = N[C@@H](Cc1ccc(OP(=O)(O)O)cc1)C(=O)O; pT = C[C@@H](OP(=O)(O)O)[C@H](N)C(=O)O; 2Nal = N[C@@H](Cc1ccc2ccccc2c1)C(=O)O
Assignment: determine reported CC50 at 1 h for the given compounds.
Answers are plain numbers, in µM.

CC(C)C[C@H](NC(=O)[C@H](CC(C)C)NC(=O)[C@H](Cc1ccc(OP(=O)(O)O)cc1)NC(=O)[C@H](CCCCN)NC(=O)[C@H](CC(C)C)NC(=O)[C@H](CCCNC(=N)N)NC(=O)[C@H](CCCCN)NC(=O)[C@H](Cc1ccc(-c2ccccc2)cc1)NC(=O)[C@H](CC(C)C)NC(=O)CN)C(N)=O (H-GL[Bip]KRLK[pY]LL-NH2); 168
CC(C)C[C@H](NC(=O)[C@H](CC(C)C)NC(=O)[C@@H](NC(=O)[C@H](CCCCN)NC(=O)[C@H](Cc1ccc(-c2ccccc2)cc1)NC(=O)[C@H](CCCNC(=N)N)NC(=O)[C@H](CCCCN)NC(=O)[C@H](CC(C)C)NC(=O)[C@H](CC(C)C)NC(=O)CN)[C@@H](C)OP(=O)(O)O)C(N)=O (H-GLLKR[Bip]K[pT]LL-NH2); 131
CC(C)C[C@H](NC(=O)[C@H](CC(C)C)NC(=O)[C@H](Cc1ccc(O)cc1)NC(=O)[C@H](CCCCN)NC(=O)[C@H](CC(C)C)NC(=O)[C@H](CCCNC(=N)N)NC(=O)[C@H](CCCCN)NC(=O)[C@H](Cc1ccc2ccccc2c1)NC(=O)[C@H](CC(C)C)NC(=O)CN)C(N)=O (H-GL[2Nal]KRLKYLL-NH2); 61.5
CC(C)C[C@H](NC(=O)[C@H](CC(C)C)NC(=O)[C@@H](NC(=O)[C@H](CCCCN)NC(=O)[C@H](CC(C)C)NC(=O)[C@H](CCCNC(=N)N)NC(=O)[C@H](CCCCN)NC(=O)[C@H](Cc1ccc(-c2ccccc2)cc1)NC(=O)[C@H](CC(C)C)NC(=O)CN)[C@@H](C)OP(=O)(O)O)C(N)=O (H-GL[Bip]KRLK[pT]LL-NH2); 112
CC(C)C[C@H](NC(=O)[C@H](CC(C)C)NC(=O)[C@@H](NC(=O)[C@H](CCCCN)NC(=O)[C@H](CC(C)C)NC(=O)[C@H](CCCNC(=N)N)NC(=O)[C@H](CCCCN)NC(=O)[C@H](Cc1ccc2ccccc2c1)NC(=O)[C@H](CC(C)C)NC(=O)CN)[C@@H](C)OP(=O)(O)O)C(N)=O (H-GL[2Nal]KRLK[pT]LL-NH2); 131

Now look at this one.
# input Query (compound): CC(C)C[C@H](NC(=O)[C@H](CC(C)C)NC(=O)[C@@H](NC(=O)[C@H](CCCCN)NC(=O)[C@H](CC(C)C)NC(=O)[C@H](CCCNC(=N)N)NC(=O)[C@H](CCCCN)NC(=O)[C@H](Cc1ccc(-c2ccccc2)cc1)NC(=O)[C@H](CC(C)C)NC(=O)CN)[C@@H](C)O)C(N)=O (H-GL[Bip]KRLKTLL-NH2) ; field requested: CC50 at 1 h
# output 76.4

###

assay: Cytotoxicity against HEK293T cells incubated for 1 hr by fluorescence based microplate reader assay; assay type: toxicity, cell-based, HEK-293T; conditions: human
Non-standard residues stand in square brackets, D forms with d. Residues, ends and D or L forms follow the SMILES beside them. 2Nal = N[C@@H](Cc1ccc2ccccc2c1)C(=O)O
QUANTITY_MEASURED: CC50 at 1 h (µM)
One number for each entry, in µM.

CC(C)C[C@H](NC(=O)[C@H](CC(C)C)NC(=O)[C@@H](NC(=O)[C@H](CCCCN)NC(=O)[C@H](Cc1ccc2ccccc2c1)NC(=O)[C@H](CCCNC(=N)N)NC(=O)[C@H](CCCCN)NC(=O)[C@H](CC(C)C)NC(=O)[C@H](CC(C)C)NC(=O)CN)[C@@H](C)O)C(N)=O (H-GLLKR[2Nal]KTLL-NH2); 177

# input Query (compound): CC(C)C[C@H](NC(=O)[C@H](CC(C)C)NC(=O)[C@@H](NC(=O)[C@H](CCCCN)NC(=O)[C@H](CC(C)C)NC(=O)[C@H](CCCNC(=N)N)NC(=O)[C@H](CCCCN)NC(=O)[C@H](Cc1ccc2ccccc2c1)NC(=O)[C@H](CC(C)C)NC(=O)CN)[C@@H](C)O)C(N)=O (H-GL[2Nal]KRLKTLL-NH2) ; field requested: CC50 at 1 h
# output 111

###

tested on: Acinetobacter baumannii; test: Antibacterial activity against Acinetobacter baumannii ATCC 19606 incubated for 18 to 24 hrs by broth microdilution method; format: functional; details: time 18-24 hrs
Non-standard residues stand in square brackets, D forms with d. Residues, ends and D or L forms follow the SMILES beside them. Bip = N[C@@H](Cc1ccc(-c2ccccc2)cc1)C(=O)O; pT = C[C@@H](OP(=O)(O)O)[C@H](N)C(=O)O; 2Nal = N[C@@H](Cc1ccc2ccccc2c1)C(=O)O
QUANTITY_MEASURED: MIC

Example cases with answers are listed next.
CC(C)C[C@H](NC(=O)[C@H](CC(C)C)NC(=O)[C@@H](NC(=O)[C@H](CCCCN)NC(=O)[C@H](CC(C)C)NC(=O)[C@H](CCCNC(=N)N)NC(=O)[C@H](CCCCN)NC(=O)[C@H](Cc1ccc(-c2ccccc2)cc1)NC(=O)[C@H](CC(C)C)NC(=O)CN)[C@@H](C)OP(=O)(O)O)C(N)=O (H-GL[Bip]KRLK[pT]LL-NH2); 32 µM
CC(C)C[C@H](NC(=O)[C@H](CC(C)C)NC(=O)[C@@H](NC(=O)[C@H](CCCCN)NC(=O)[C@H](CC(C)C)NC(=O)[C@H](CCCNC(=N)N)NC(=O)[C@H](CCCCN)NC(=O)[C@H](Cc1ccc2ccccc2c1)NC(=O)[C@H](CC(C)C)NC(=O)CN)[C@@H](C)OP(=O)(O)O)C(N)=O (H-GL[2Nal]KRLK[pT]LL-NH2); 64 µM

Now look at this one.
# input Query (molecule): CC(C)C[C@H](NC(=O)[C@H](CC(C)C)NC(=O)[C@@H](NC(=O)[C@H](CCCCN)NC(=O)[C@H](CC(C)C)NC(=O)[C@H](CCCNC(=N)N)NC(=O)[C@H](CCCCN)NC(=O)[C@H](Cc1ccc(-c2ccccc2)cc1)NC(=O)[C@H](CC(C)C)NC(=O)CN)[C@@H](C)O)C(N)=O (H-GL[Bip]KRLKTLL-NH2) ; field requested: MIC
# output 8 µM

###

system: Pseudomonas aeruginosa; test: Antibacterial activity against Pseudomonas aeruginosa 119 incubated for 18 to 24 hrs by broth microdilution method; type: functional; details: time 18-24 hrs
Non-standard residues stand in square brackets, D forms with d. Residues, ends and D or L forms follow the SMILES beside them. Bip = N[C@@H](Cc1ccc(-c2ccccc2)cc1)C(=O)O; pY = N[C@@H](Cc1ccc(OP(=O)(O)O)cc1)C(=O)O; pT = C[C@@H](OP(=O)(O)O)[C@H](N)C(=O)O; 2Nal = N[C@@H](Cc1ccc2ccccc2c1)C(=O)O
MIC strictly less than 30 µM = fulfilled. Otherwise not fulfilled.

Answered cases to consult:
CC(C)C[C@H](NC(=O)[C@H](CC(C)C)NC(=O)[C@@H](NC(=O)[C@H](CCCCN)NC(=O)[C@H](CC(C)C)NC(=O)[C@H](CCCNC(=N)N)NC(=O)[C@H](CCCCN)NC(=O)[C@H](Cc1ccc(-c2ccccc2)cc1)NC(=O)[C@H](CC(C)C)NC(=O)CN)[C@@H](C)OP(=O)(O)O)C(N)=O (H-GL[Bip]KRLK[pT]LL-NH2); not fulfilled
CC(C)C[C@H](NC(=O)[C@H](CC(C)C)NC(=O)[C@H](Cc1ccc(O)cc1)NC(=O)[C@H](CCCCN)NC(=O)[C@H](CC(C)C)NC(=O)[C@H](CCCNC(=N)N)NC(=O)[C@H](CCCCN)NC(=O)[C@H](Cc1ccc(-c2ccccc2)cc1)NC(=O)[C@H](CC(C)C)NC(=O)CN)C(N)=O (H-GL[Bip]KRLKYLL-NH2); fulfilled
CN[C@H](CC(C)C)C(=O)N[C@H]1C(=O)N[C@@H](CC(N)=O)C(=O)N[C@H]2C(=O)N[C@H]3C(=O)N[C@H](C(=O)N[C@H](C(=O)O)c4cc(O)cc(O)c4-c4cc3ccc4O)[C@H](O)c3ccc(c(Cl)c3)Oc3cc2cc(c3O[C@@H]2O[C@H](CO)[C@@H](O)[C@H](O)[C@H]2O[C@H]2C[C@](C)(N)[C@H](O)[C@H](C)O2)Oc2ccc(cc2Cl)[C@H]1O; not fulfilled

# input Is it true that MIC reported for CC(C)C[C@H](NC(=O)[C@H](CC(C)C)NC(=O)[C@H](Cc1ccc(OP(=O)(O)O)cc1)NC(=O)[C@H](CCCCN)NC(=O)[C@H](CC(C)C)NC(=O)[C@H](CCCNC(=N)N)NC(=O)[C@H](CCCCN)NC(=O)[C@H](Cc1c[nH]c2ccccc12)NC(=O)[C@H](CC(C)C)NC(=O)CN)C(N)=O (H-GLWKRLK[pY]LL-NH2) is less than 30 µM?
# output not fulfilled

# input And for CC(C)C[C@H](NC(=O)[C@H](CC(C)C)NC(=O)[C@@H](NC(=O)[C@H](CCCCN)NC(=O)[C@H](CC(C)C)NC(=O)[C@H](CCCNC(=N)N)NC(=O)[C@H](CCCCN)NC(=O)[C@H](Cc1ccc(-c2ccccc2)cc1)NC(=O)[C@H](CC(C)C)NC(=O)CN)[C@@H](C)O)C(N)=O (H-GL[Bip]KRLKTLL-NH2) ?
# output fulfilled

# input And for CC(C)C[C@H](NC(=O)[C@H](CC(C)C)NC(=O)[C@@H](NC(=O)[C@H](CCCCN)NC(=O)[C@H](Cc1ccc(-c2ccccc2)cc1)NC(=O)[C@H](CCCNC(=N)N)NC(=O)[C@H](CCCCN)NC(=O)[C@H](CC(C)C)NC(=O)[C@H](CC(C)C)NC(=O)CN)[C@@H](C)OP(=O)(O)O)C(N)=O (H-GLLKR[Bip]K[pT]LL-NH2) ?
# output not fulfilled

# input And for CC(C)C[C@H](NC(=O)[C@H](CC(C)C)NC(=O)[C@@H](NC(=O)[C@H](CCCCN)NC(=O)[C@H](CC(C)C)NC(=O)[C@H](CCCNC(=N)N)NC(=O)[C@H](CCCCN)NC(=O)[C@H](Cc1ccc2ccccc2c1)NC(=O)[C@H](CC(C)C)NC(=O)CN)[C@@H](C)O)C(N)=O (H-GL[2Nal]KRLKTLL-NH2) ?
# output fulfilled

# input And for CC(C)C[C@H](NC(=O)[C@H](CC(C)C)NC(=O)[C@@H](NC(=O)[C@H](CCCCN)NC(=O)[C@H](CC(C)C)NC(=O)[C@H](CCCNC(=N)N)NC(=O)[C@H](CCCCN)NC(=O)[C@H](Cc1ccc2ccccc2c1)NC(=O)[C@H](CC(C)C)NC(=O)CN)[C@@H](C)OP(=O)(O)O)C(N)=O (H-GL[2Nal]KRLK[pT]LL-NH2) ?
# output not fulfilled

# input And for COc1cccc(OC)c1C(=O)N[C@@H]1C(=O)N2[C@@H]1SC(C)(C)[C@@H]2C(=O)O ?
# output not fulfilled

# input And for CNC(C)[C@@H]1CC[C@@H](N)[C@@H](O[C@H]2[C@H](O)[C@@H](O[C@H]3OC[C@](C)(O)[C@H](NC)[C@H]3O)[C@H](N)C[C@@H]2N)O1.CN[C@@H]1[C@@H](O)[C@@H](O[C@@H]2[C@@H](O)[C@H](O[C@H]3O[C@H](C(C)N)CC[C@H]3N)[C@@H](N)C[C@H]2N)OC[C@]1(C)O.CN[C@@H]1[C@@H](O)[C@@H](O[C@@H]2[C@@H](O)[C@H](O[C@H]3O[C@H](CN)CC[C@H]3N)[C@@H](N)C[C@H]2N)OC[C@]1(C)O (some centres not stated) ?
# output not fulfilled

# input And for C[C@@H](O)[C@H]1C(=O)N2C(C(=O)O)=C(S[C@@H]3CN[C@H](C(=O)N(C)C)C3)[C@H](C)[C@H]12 ?
# output fulfilled

# input And for CC(C)C[C@H](NC(=O)[C@H](CC(C)C)NC(=O)[C@H](Cc1ccc(OP(=O)(O)O)cc1)NC(=O)[C@H](CCCCN)NC(=O)[C@H](CC(C)C)NC(=O)[C@H](CCCNC(=N)N)NC(=O)[C@H](CCCCN)NC(=O)[C@H](Cc1ccc(-c2ccccc2)cc1)NC(=O)[C@H](CC(C)C)NC(=O)CN)C(N)=O (H-GL[Bip]KRLK[pY]LL-NH2) ?
# output fulfilled
